Measured values drawn from patent US11066414B2 for this set.

System: TNFα
Assay: Cot Monocyte TNFα Cell Based Assay
Settings: Homo sapiens, Monocyte, read-out: EC50 TNF, LPS-stimulated human monocytes, TNFα
pEC50: −log10 of the molar value.
assay-metric: pEC50

Example cases with answers are listed next.
[2H]C(Nc1cc(Cl)c2ncc(C#N)c(NCC(C)(C)C)c2c1)(c1cn(C2CC2)nn1)c1scnc1C (stereo not shown) = 6.34
Cc1nc2cccc([C@H](Nc3cc(C#N)c4ncc(C#N)c(NCC(C)(C)C)c4c3)c3cn(C4(C(F)(F)F)CC4)nn3)c2s1 = 6.67

1. CC(C)(C)CNc1c(C#N)cnc2c(C#N)cc(N[C@H](c3cn(C4(CF)CC4)nn3)c3cccc4ncsc34)cc12
2. Cc1n[nH]c2cccc([C@H](Nc3cc(Cl)c4ncc(C#N)c(NCC(C)(C)C)c4c3)c3cn(C4(C(F)F)CC4)nn3)c12
Min pEC50? 1 | 2 Please respond with the label that marks your chosen entry.
2
(2: 6.92, 1: 7.59)
